Values from patent US20260234738A1

measurement-target: Bt-SARS-CoV-2 Spike Protein (RBD) (R319-F541).mFc (SARS-CoV-2)
assay-overview: Luminex beads, supernatant
What MFI was measured for each of the following?
Respond with a number, then the unit of measure.

# MFI lookup, item mAb10986 (antibody, V domains shown) VH: EVQLVESGGGLVQPGGSLRLSCAASEFTVSSNYMSWVRQAPGKGLEWVSVIYSGGSTFYADSVKGRFTISRDNSKNTLYLQMNSLRAEDTAVYYCARALPYGDLHFDYWGQGTLVTVSS VL: QSVLTQPPSVSGAPGQRVTISCTGSSSNIGTGYDVHWYQQLPGTAPKLLIYGNTNRPSGVPDRFSGSKSGTSASLAITGLQAEDEADYYCQSYDSSLSDSYVFGTGTKVTVLG
15900 MFI

# MFI lookup, item mAb10938 (antibody, V domains shown) VH: EVQLVESGGGLVQPGGSLRLSCAVSGFTVSSNYMSWVRQAPGKGLEWVSLIYSGGSTFYADSVKGRFTISRHNSKNTLYLQMNSLRAEDTAVYYCAREGGYSYDYNYWGQGTLVTVSS VL: DIQMTQSPSSLSASVGDRVTITCQASQDIRNYLNWYQQKPGKAPKLLIYDASNLETGVPSRFSGIGSGTDFTFTISSLQPEDIATYYCQQYDNLPITFGQGTRLEIKR
17200 MFI

# MFI lookup, item mAb10971 (antibody, V domains shown) VH: EVQLVESGGGLIQPGGSLRLSCAASGVTVSSNYMSWVRQAPGKGLEWVSVIYSGGSTFYSDSVKGRFSISRDNSKNTLYLQMNSLRAEDTAVYYCARDLYYYGMDVWGQGTTVTVSS VL: DIQLTQSPSFLSASVGDRVTITCRASQGISTYLAWYQQKPGKAPKLLIYAASTLQSGVPSRFSGSGSGTEFTLTISSLQPEDFATYYCQQLDSYPGLTFGGGTKVEIKR
16700 MFI

# MFI lookup, item mAb10955 (antibody, V domains shown) VH: EVQLVESGGGLVQPGGSLRVSCAASGFTVSRNYMSWVRQAPGKGLEWVSVIYSGGSTFYADSVKGRFTISRDNSKNTLYLQMNSLRAEDTAIYYCARYIPRFDPWGQGTLVTVSS VL: DIQMTQSPSSLSASVGDRVTITCQASQDISNYLNWFQQKPGRAPKLLIYDASNLETGVPSRFSGSGSGTDFTFTISSLQPEDIATYYCQQYDNLPITFGQGTRLEIKR
16800 MFI
